# Test system: CCRF-CEM
# procedure.details: Induction of apoptosis in human CCRF-CEM cells assessed as necrotic cells at 1 time IC50 incubated for 24 hrs by Annexin V and propidium iodide staining based flow cytometry analysis (reference value: 0.1%)
# Type: functional
property.label: Activity (%)
Respond with the bare value in %.

See these solved cases before continuing.
| molecule | property.label | readout.units | val |
| --- | --- | --- | --- |
| C[C@H]1[C@H](C)CC[C@]2(C(=O)O)CC[C@]3(C)C(=CC[C@@H]4[C@@]5(C)CC6=C(C7C(=O)N(c8ccccc8)C(=O)C7C=C6C(F)(F)F)C(C)(C)[C@@H]5CC[C@]43C)[C@H]12 (stereo partly specified) | Activity | % | 0 |
| CC(C)[C@@H]1CC[C@]2(C(=O)O)CC[C@]3(C)[C@H](CC[C@@H]4[C@@]5(C)Cc6c(C(F)(F)F)cc(=O)oc6C(C)(C)[C@@H]5CC[C@]43C)[C@@H]12 | Activity | % | 0 |
| CC(C)[C@@H]1CC[C@]2(C(=O)O)CC[C@]3(C)[C@H](CC[C@@H]4[C@@]5(C)CC6=C(C7C(=O)N(c8ccccc8)C(=O)C7C=C6C(F)(F)F)C(C)(C)[C@@H]5CC[C@]43C)[C@@H]12 (stereo partly specified) | Activity | % | 0 |
| C=C(C)[C@@H]1CC[C@]2(C(=O)O)CC[C@]3(C)[C@H](CC[C@@H]4[C@@]5(C)CC6=C(C7C(=O)N(c8ccccc8)C(=O)C7C=C6C(F)(F)F)C(C)(C)[C@@H]5CC[C@]43C)[C@@H]12 (stereo partly specified) | Activity | % | 0 |
| C=C(C)[C@@H]1CC[C@]2(C(=O)O)CC[C@]3(C)[C@H](CC[C@@H]4[C@@]5(C)Cc6c(C(F)(F)F)cc(C(=O)OC)c(C(=O)OC)c6C(C)(C)[C@@H]5CC[C@]43C)[C@@H]12 | Activity | % | 0 |

Now for another entry.
Please report Activity for the following molecule: C=C(C)[C@@H]1CC[C@]2(C(=O)O)CC[C@]3(C)[C@H](CC[C@@H]4[C@@]5(C)Cc6c(C(F)(F)F)cc(=O)oc6C(C)(C)[C@@H]5CC[C@]43C)[C@@H]12
0.1

---

// reported IC50 at 72 h per item
# procedure.details: Cytotoxicity against human MRC5 cells assessed as reduction in cell viability incubated for 72 hrs by MTS assay
# Assay type: toxicity, cell-based
Respond with the bare value in µM.

See these solved cases before continuing.
| molecule | property.label | readout.units | val |
| --- | --- | --- | --- |
| C=C(C)[C@@H]1CC[C@]2(C(=O)O)CC[C@]3(C)[C@H](CC[C@@H]4[C@@]5(C)CC6=C(C7C(=O)N(c8ccccc8)C(=O)C7C=C6C(F)(F)F)C(C)(C)[C@@H]5CC[C@]43C)[C@@H]12 (stereo not given in full) | IC50 at 72 h | µM | 28 |
| CC(C)[C@@H]1CC[C@]2(C(=O)O)CC[C@]3(C)[C@H](CC[C@@H]4[C@@]5(C)CC6=C(C7C(=O)N(c8ccccc8)C(=O)C7C=C6C(F)(F)F)C(C)(C)[C@@H]5CC[C@]43C)[C@@H]12 (stereo not given in full) | IC50 at 72 h | µM | 28 |
| CC(C)[C@@H]1CC[C@]2(C(=O)O)CC[C@]3(C)[C@H](CC[C@@H]4[C@@]5(C)CC(C(=O)C(F)(F)F)C(=O)C(C)(C)[C@@H]5CC[C@]43C)[C@@H]12 (stereo not given in full) | IC50 at 72 h | µM | 46 |

Please report IC50 at 72 h for the following molecule: C=C(C)[C@@H]1CC[C@]2(C(=O)O)CC[C@]3(C)[C@H](CC[C@@H]4[C@@]5(C)Cc6c(C(F)(F)F)cc(=O)oc6C(C)(C)[C@@H]5CC[C@]43C)[C@@H]12
28
